Biological target: T1, RSV F subtype B, furin-cleaved ectodomain stabilized in the prefusion conformation (DS-Cav1) (Respiratory syncytial virus subtype B)
T1 construct: extracellular domain; Trimeric soluble antigen; also called Prefusion subtype B
Test: BLI, IgG on AHQ sensor, 100 nM antigen
property: Kd (nM)
Please respond with the number in nM and leave the unit unwritten.

Record excerpt, results attached:
binder: ADI-18917 (antibody, V domains shown, full-length IgG from yeast; also called Antibody Number 271; Ab # 271) VH: EVQLVESGGGLVKPGGSLRLSCAASGFTFSSFGMHWVRQAPGQGLEWVASITGGSSYINYADSVKGRFTISRDNAKKSLSLQMKNLRAEDTAEYYCVRGVLPGDTGGGWFDSWGQGTLVTVSS VL: QSVLTQPPSMSGAPGQRVTISCTGTSSNIGAGYDVQWYQQFPGTAPKLLISGNNNRPSGVPDRFSGSKSGASASLAITGLQAEDEADYYCQSYDYSLNWVFGGGTKLTVL
Kd [nM]: 0.332
//
binder: ADI-18877 (antibody, V domains shown, full-length IgG from yeast; also called Antibody Number 234; Ab # 234) VH: QVQLVQSGTEVKKPGASVKVSCKAAGYTFSNYGVSWVRQAPGQGLEWMGWISAYNGNTKFAQKVQGRLTMTTDTSTSTAYMELRNLRSDDTAVYYCARESGATAAAMFDYWGQGTLVTVSS VL: ETTLTQSPLSLPVTLGQPASISCRSSQSLEYSDGNIYLSWFQQRPGQSPRRLIYKVSHRDSGVPDRFSGSGSGTDFTLKIARVEAEDVAVYYCMQAIHWPRTFGQGTKVDIK
Kd [nM]: 0.383

Shift focus to the following entry.
Name the reported Kd value associated with the binder ADI-18875 (antibody, V domains shown, full-length IgG from yeast; also called Antibody Number 232; Ab # 232) VH: QVQLQQWGAGLLKPSETLSLTCAVYGGSFSGYSWSWIRQTPGKGLEWIGEINHRGSTNYNPSLKSRVTMSVDTSQNQISLRVTSVTAADTAVYFCAGTNYGEVNTSNQYFFGMDVWGQGTTVTVSS VL: DIQVTQSPSSLSASVGDRVTITCRASQSIGTYLNWYQQKPGKPPKLLIYAASNLESGVPSSFSGSGSGTHFTLTISSLQPEHFATYYCQQSYSTPLTFGGGTKVEIK 0.764
